Every entry's value here was drawn from patent US20240270821A1.

Target: T1, human GIP receptor (human) (UniProt P48546)
T1 sequence (looked up): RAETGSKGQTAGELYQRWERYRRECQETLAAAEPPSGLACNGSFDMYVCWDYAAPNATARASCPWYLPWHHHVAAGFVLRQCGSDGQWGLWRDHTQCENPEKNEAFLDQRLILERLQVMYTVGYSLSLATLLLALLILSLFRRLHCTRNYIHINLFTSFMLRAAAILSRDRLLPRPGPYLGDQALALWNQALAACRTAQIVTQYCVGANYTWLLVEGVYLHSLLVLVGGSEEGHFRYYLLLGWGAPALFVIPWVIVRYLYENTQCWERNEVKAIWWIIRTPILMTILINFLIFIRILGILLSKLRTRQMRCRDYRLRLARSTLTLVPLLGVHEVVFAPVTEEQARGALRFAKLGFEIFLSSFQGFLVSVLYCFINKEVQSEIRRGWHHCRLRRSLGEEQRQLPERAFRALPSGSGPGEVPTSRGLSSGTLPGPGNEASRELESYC
Assay: cell-based or functional assay
Non-standard residues stand in square brackets, D forms with d. No end group written: not given here. αMePhe(2-F) = C[C@](N)(Cc1ccccc1F)C(=O)O; Aib = CC(C)(N)C(=O)O
Listed below: Relative cAMP EC50 values for each entry.
Report the figure along with its unit, number first.

binder	result_value
YXQGTFTSDFSXXLDKKAQXAFIEYLLEGGPSSGAXPPGGS (Aib, Orn, αMeL, Hyp; AEEA-γGlu-C18 diacid on Lys; C-terminal amide; synthetic construct; SITE 2: note = 2-Aminoisobutyric Acid; SITE 12: note = L-ornithine; SITE 13: note = alpha-methyl-leucine; SITE 17: note = Lysine is chemically modified through conjugation of the epsilon-amino group of the Lysine side chain with (2-[2-(2-Amino-ethoxy)-ethoxy]-acetyl)-(gamma-Glu)) [Example 235]	0.388 nM
YXQGTXTSDXSILLDKKAQXAFIEYLEEGGPSSGEPPPSGTGE (Aib, αMeF(2F), 4Pal; acylated K; C-terminal amide; synthetic construct; SITE 2: note = 2-Aminoisobutyric Acid; SITE 6: note = alpha-methyl-2-fluoro-L-phenylalanine; SITE 10: note = 3-(4-Pyridyl)-L-alanine; SITE 17: note = Lysine is chemically modified through conjugation of the epsilon-amino group of the Lysine side chain with (gamma-Glu)2-CO-(CH2)1) [Example 607]	0.0879 nM
YXQGTFTSDXSXXLDKKAQXAFIEYLIAGGPSSGAPPPSGSEE (Aib, 4Pal, Orn, αMeL, Me4Pal; acylated Lys; C-terminal amide; synthetic construct; SITE 2: note = 2-Aminoisobutyric Acid; SITE 10: note = 3-(4-Pyridyl)-L-alanine; SITE 12: note = L-ornithine; SITE 13: note = alpha-methyl-leucine; SITE 17: note = Lysine is chemically modified through conjugation of the epsilon-amino group of the Lysine side chain with (Glu)-(ga)) [Example 1060]	0.223 nM
Y[Aib]QGT[αMePhe(2-F)]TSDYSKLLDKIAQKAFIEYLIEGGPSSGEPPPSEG-NH2 (not fully specified (residue 20)) [Example 330]	0.0783 nM
YXQGTXTSDXXIXLDXKAAXEFIEXLIEGGPSSGEPPPSGS (synthetic construct; SITE 2: note = 2-Aminoisobutyric Acid; SITE 6: note = alpha-methyl-2-fluoro-L-phenylalanine; SITE 10: note = 3-(4-Pyridyl)-L-alanine; SITE 11: note = alpha-methyl-L-serine; SITE 13: note = alpha-methyl-leucine; SITE 16: note = L-ornithine; SITE 17: note = Lysine is chemically mo) [Example 707]	0.0107 nM

# Relative cAMP EC50 (binder: YXQGTXTSDXXILLDXKAQXXFIEXLQEGGPSSGEPPPEGAE (synthetic construct; SITE 2: note = 2-Aminoisobutyric Acid; SITE 6: note = alpha-methyl-2-fluoro-L-phenylalanine; SITE 10: note = 3-(4-Pyridyl)-L-alanine; SITE 11: note = alpha-methyl-L-serine; SITE 16: note = L-ornithine; SITE 17: note = Lysine is chemically modified through conjugation of the epsi) [Example 546] ) is 0.25 nM
